- system name: recombinant RORγ Ligand Binding Domain (LBD) protein (Homo sapiens (Human), UniProt P51449)
- assay protocol: Radio-Ligand RORγ Binding Assay (Assay 1)
- condition parameters: competition with 25-hydroxy[26,27-3H]-cholesterol, SPA; read-out: RORγ Binding Ki Range* (nM) (Assay 1)
Below, each entry is listed with its recorded Ki.

Please review the following examples before continuing.
- molecule: "CCS(=O)(=O)c1ccc(CNC(=O)c2ccc3c(c2)CN(C[C@H]2CO[C@H](C(F)(F)F)OC2)[C@H]3C(C)C)nc1 (single isomer, unassigned) [Compound 32b]"
  Ki: "< 100 nM"
- molecule: "CCO[C@H]1CC[C@H](CN2Cc3cc(C(=O)NCc4ccc(S(=O)(=O)CC)cn4)ccc3[C@@H]2C(C)C)CC1 (single isomer, unassigned)"
  Ki: "< 100 nM"
- molecule: "CCS(=O)(=O)c1ccc(CNC(=O)c2ccc3c(c2)C(=O)N(Cc2ccc(C(F)(F)F)cc2)C3C(C)C)cc1 (single isomer, unassigned) [Compound 26b]"
  Ki: "< 100 nM"
- molecule: "CCS(=O)(=O)c1ccc(CNC(=O)c2ccc3c(c2)CN(CC2CCC(O)(C(F)(F)F)CC2)C3C(C)C)cc1 (single isomer, unassigned) [Compound 12c]"
  Ki: "< 100 nM"
- molecule: "CCS(=O)(=O)c1ccc([C@H](CCO)NC(=O)c2ccc3c(c2)CN(C[C@H]2CC[C@H](C(F)(F)F)CC2)[C@@H]3C(C)C)cc1"
  Ki: "< 100 nM"
- molecule: "CC(C)[C@H]1c2ccc(C(=O)NCC3CCN(S(C)(=O)=O)CC3)cc2CN1C[C@H]1CC[C@H](C(F)(F)F)CC1"
  Ki: "< 100 nM"
- molecule: "CCS(=O)(=O)c1ccc(CNC(=O)c2ccc3c(c2)CN(CC2CCC(O)(C(F)(F)F)CC2)C3C(C)C)cc1 (single isomer, unassigned) [Compound 12d]"
  Ki: "< 100 nM"

The reported Ki of the molecule `CCS(=O)(=O)c1ccc([C@H](CO)NC(=O)c2ccc3c(c2)CN(C[C@H]2CC[C@H](C(F)(F)F)CC2)[C@H]3C(C)C)cc1` was < 100 nM

* * *

Below, each entry is listed with its recorded IC50.
- system name: full-length RORγt in Jurkat cells (Homo sapiens (Human))
- assay protocol: RORγt 5×RORE Assay in Jurkat Cells (Assay 2)
- Format: cell-based
- condition parameters: 5xRORE secreted Nanoluc luciferase reporter, 16-18 hrs, read-out: RORγt5X IC50 Range* (nM) (Assay 2)

Please review the following examples before continuing.
- molecule: "CC[C@H]1c2ccc(C(=O)N[C@@H](COC(N)=O)c3ccc(S(=O)(=O)CC)cc3)cc2CN1C[C@H]1CC[C@H](C(F)(F)F)CC1 (single isomer, unassigned) [Compound 24b]"
  IC50: "> 1000 nM"
- molecule: "CCS(=O)(=O)c1ccc(CNC(=O)c2ccc3c(c2)C(=O)N(Cc2ccc(C(F)(F)F)cc2)C3C(C)C)nc1 (centres unmarked) [Compound 27]"
  IC50: "100 to 1000 nM"
- molecule: "CC(C)[C@H]1c2ccc(C(=O)NCC3CCN(S(C)(=O)=O)CC3)cc2CN1C[C@H]1CC[C@H](C(F)(F)F)CC1 [Compound 4a]"
  IC50: "< 100 nM"
- molecule: "CC[C@H]1c2ccc(C(=O)NCc3ccc(S(=O)(=O)NC)cn3)cc2CN1C[C@H]1CC[C@H](C(F)(F)F)CC1 [Compound 23a]"
  IC50: "< 100 nM"

Attention now shifts to the item below.
Summary: CCS(=O)(=O)N1CCC(CNC(=O)c2ccc3c(c2)CN(CC2CCC(OC)(C(F)(F)F)CC2)C3C(C)C)CC1 (single isomer, unassigned) [Compound 13a] , full-length RORγt in Jurkat cells (Homo sapiens (Human)), IC50 = 100 to 1000 nM

* * *

- system name: full-length RORγt in Jurkat cells (Homo sapiens (Human), UniProt P51449)
- Sequence (P51449 other isoform, or with tags, fused parts or gaps): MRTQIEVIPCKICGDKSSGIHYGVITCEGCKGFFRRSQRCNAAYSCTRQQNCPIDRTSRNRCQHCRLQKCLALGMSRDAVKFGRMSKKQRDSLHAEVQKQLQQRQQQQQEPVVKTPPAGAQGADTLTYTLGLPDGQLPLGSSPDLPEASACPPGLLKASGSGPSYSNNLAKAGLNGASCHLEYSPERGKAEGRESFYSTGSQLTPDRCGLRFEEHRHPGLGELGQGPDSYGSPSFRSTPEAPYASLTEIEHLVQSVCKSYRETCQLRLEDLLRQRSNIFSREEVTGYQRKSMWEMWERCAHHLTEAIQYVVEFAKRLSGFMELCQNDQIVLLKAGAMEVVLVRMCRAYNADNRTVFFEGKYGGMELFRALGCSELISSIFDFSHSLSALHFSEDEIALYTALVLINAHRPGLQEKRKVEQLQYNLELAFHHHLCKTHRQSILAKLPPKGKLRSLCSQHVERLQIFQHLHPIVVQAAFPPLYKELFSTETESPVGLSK
- assay protocol: RORγt 5×RORE Assay in Jurkat Cells (Assay 2)
- Type: cell-based
- condition parameters: 5xRORE secreted Nanoluc luciferase reporter, 16-18 hrs, read-out: RORγt5X IC50 Range* (nM) (Assay 2)
endpoint: IC50

Please review the following examples before continuing.
- compound: "CCS(=O)(=O)c1ccc(CNC(=O)c2ccc3c(c2)CN(CC2CCC(O)(C(F)(F)F)CC2)C3C(C)C)cc1 (single isomer, unassigned) [Compound 12b]"
  system name: "full-length RORγt in Jurkat cells (Homo sapiens (Human), UniProt P51449)"
  IC50: "> 1000 nM"
- compound: "CCS(=O)(=O)c1ccc([C@H](CO)NC(=O)c2ccc3c(c2)CN(C[C@H]2CC[C@H](C(F)(F)F)CC2)[C@H]3C(C)C)cc1"
  system name: "full-length RORγt in Jurkat cells (Homo sapiens (Human), UniProt P51449)"
  IC50: "< 100 nM"
- compound: "CCS(=O)(=O)c1ccc([C@H](CCO)NC(=O)c2ccc3c(c2)CN(C[C@H]2CC[C@H](C(F)(F)F)CC2)[C@@H]3C(C)C)cc1"
  system name: "full-length RORγt in Jurkat cells (Homo sapiens (Human), UniProt P51449)"
  IC50: "100 to 1000 nM"
- compound: "CCS(=O)(=O)c1ccc([C@H](CCO)NC(=O)c2ccc3c(c2)CN(C[C@H]2CC[C@H](C(F)(F)F)CC2)[C@H]3C(C)C)cc1"
  system name: "full-length RORγt in Jurkat cells (Homo sapiens (Human), UniProt P51449)"
  IC50: "< 100 nM"
- compound: "CCS(=O)(=O)c1ccc(CNC(=O)c2ccc3c(c2)CN(CC2CCC(O)(C(F)(F)F)CC2)C3C(C)C)cc1 (single isomer, unassigned) [Compound 12a]"
  system name: "full-length RORγt in Jurkat cells (Homo sapiens (Human), UniProt P51449)"
  IC50: "< 100 nM"

The reported IC50 of the compound CCS(=O)(=O)c1ccc(CNC(=O)c2ccc3c(c2)CN(CC2CCC(C(F)(F)F)OC2)[C@H]3C(C)C)nc1 (single isomer, unassigned) [Compound 16a] was < 100 nM

The reported IC50 of the compound CCS(=O)(=O)c1ccc(CNC(=O)c2ccc3c(c2)CN(CC2CCC(C(F)(F)F)OC2)[C@H]3C(C)C)nc1 (single isomer, unassigned) [Compound 16b] was < 100 nM

The reported IC50 of the compound CCO[C@H]1CC[C@H](CN2Cc3cc(C(=O)NCc4ccc(S(=O)(=O)CC)cn4)ccc3[C@@H]2C(C)C)CC1 (single isomer, unassigned) was < 100 nM

* * *

Below, each entry is listed with its recorded IC50.
- system name: full-length RORγt in Jurkat cells (Homo sapiens (Human))
- assay protocol: RORγt 5×RORE Assay in Jurkat Cells (Assay 2)
- Assay type: cell-based
- condition parameters: 5xRORE secreted Nanoluc luciferase reporter, 16-18 hrs, read-out: RORγt5X IC50 Range* (nM) (Assay 2)

Please review the following examples before continuing.
- compound: "CCS(=O)(=O)c1ccc(CNC(=O)c2ccc3c(c2)C(=O)N(Cc2ccc(C(F)(F)F)cc2)C3C(C)C)cc1 (single isomer, unassigned) [Compound 26b]"
  IC50: "100 to 1000 nM"
- compound: "CCS(=O)(=O)c1ccc([C@@H](CO)NC(=O)c2ccc3c(c2)CN(C[C@H]2CC[C@H](C(F)(F)F)CC2)[C@H]3C(C)C)cc1"
  IC50: "< 100 nM"
- compound: "COC1(C(F)(F)F)CCC(CN2Cc3cc(C(=O)NCC4CCN(S(C)(=O)=O)CC4)ccc3[C@@H]2C(C)C)CC1 (single isomer, unassigned) [Compound 14b]"
  IC50: "> 1000 nM"

Attention now shifts to the item below.
Summary: CCS(=O)(=O)c1ccc([C@H](CO)NC(=O)c2ccc3c(c2)C(=O)N(Cc2ccc(C(F)(F)F)cc2)C3C(C)C)cc1 (stereo partly shown) , full-length RORγt in Jurkat cells (Homo sapiens (Human)), IC50 = < 100 nM

Numbers sourced from patent US9845308B2.
